Origin of values: the Kinase Knowledgebase extract (Sharma et al. 2016)

- TESTED_TARGET: PIK3CG (human) (UniProt P48736)
- Sequence (P48736 whole entry, looked up): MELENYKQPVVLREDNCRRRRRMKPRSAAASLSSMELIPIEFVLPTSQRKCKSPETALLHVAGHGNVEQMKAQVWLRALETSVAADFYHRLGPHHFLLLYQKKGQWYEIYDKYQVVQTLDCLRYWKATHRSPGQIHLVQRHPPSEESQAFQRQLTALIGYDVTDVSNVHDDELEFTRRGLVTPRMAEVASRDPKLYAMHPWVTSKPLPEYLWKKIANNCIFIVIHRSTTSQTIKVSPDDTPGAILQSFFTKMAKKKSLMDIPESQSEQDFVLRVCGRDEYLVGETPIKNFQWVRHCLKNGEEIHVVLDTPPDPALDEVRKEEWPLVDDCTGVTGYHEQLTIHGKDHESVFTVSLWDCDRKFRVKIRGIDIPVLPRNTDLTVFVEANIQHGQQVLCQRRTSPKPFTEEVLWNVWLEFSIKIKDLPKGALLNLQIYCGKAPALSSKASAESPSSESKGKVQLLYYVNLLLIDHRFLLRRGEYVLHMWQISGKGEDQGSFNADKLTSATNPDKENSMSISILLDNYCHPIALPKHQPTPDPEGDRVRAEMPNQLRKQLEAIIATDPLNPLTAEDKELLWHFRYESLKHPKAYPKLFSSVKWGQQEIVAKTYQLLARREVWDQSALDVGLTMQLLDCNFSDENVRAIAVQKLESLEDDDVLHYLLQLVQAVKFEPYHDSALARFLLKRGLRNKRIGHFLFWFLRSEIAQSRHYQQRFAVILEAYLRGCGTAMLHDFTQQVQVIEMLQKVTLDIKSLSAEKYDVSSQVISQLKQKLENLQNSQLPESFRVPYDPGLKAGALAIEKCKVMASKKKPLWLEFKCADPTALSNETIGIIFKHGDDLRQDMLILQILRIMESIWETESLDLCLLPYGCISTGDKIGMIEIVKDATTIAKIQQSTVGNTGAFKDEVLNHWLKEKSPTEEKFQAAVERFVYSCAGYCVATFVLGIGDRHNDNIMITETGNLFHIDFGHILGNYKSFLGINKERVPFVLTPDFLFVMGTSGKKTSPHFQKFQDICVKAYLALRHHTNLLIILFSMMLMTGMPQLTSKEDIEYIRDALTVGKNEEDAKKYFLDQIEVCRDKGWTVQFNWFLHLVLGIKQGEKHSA
- ASSAY_OVERVIEW: Enzyme Assay
Entries annotated with measured IC50
API: value field is a number in nM; no unit string.

Cc1nc(N)nc(N2C[C@@H](O)C[C@H]2c2nc3cccc(Cl)c3c(=O)n2C2CC2)c1C#N | 85
Cc1ccc(-n2c([C@@H]3CSCN3c3ncnc(N)c3C#N)nc3cccc(Cl)c3c2=O)s1 | 1100
COc1ccc(-n2c([C@@H]3CCCN3c3nc(N)nc4[nH]cnc34)nc3cccc(Cl)c3c2=O)cn1 | 220
CO[C@H]1C[C@@H](c2nc3cccc(C(F)(F)F)c3c(=O)n2-c2ccccc2)N(c2ncnc(N)c2C#N)C1 | 460

**Query** I have this compound here, N#Cc1cnc(N)nc1N1CCC[C@H]1c1nc2cccc(C(F)(F)F)c2c(=O)n1-c1ccccc1 , and I need its recorded IC50.
**Result** 230

**Query** I have this compound here, N#Cc1c(N)ncnc1N1CCC[C@H]1c1nc2cccc(Cl)c2c(=O)n1C1CCOCC1 , and I need its recorded IC50.
**Result** 280

**Query** I have this compound here, O=c1c2c(Cl)cccc2nc([C@@H]2CCCN2c2ncnc3[nH]cnc23)n1-c1cccnc1 , and I need its recorded IC50.
**Result** 170

**Query** I have this compound here, N#Cc1c(N)ncnc1N1CCC[C@H]1c1nc2cccc(Cl)c2c(=O)n1C1CC1 , and I need its recorded IC50.
**Result** 25

* * *

- TESTED_TARGET: PIK3CA (human) (UniProt P42336)
- Sequence (P42336 whole entry, looked up): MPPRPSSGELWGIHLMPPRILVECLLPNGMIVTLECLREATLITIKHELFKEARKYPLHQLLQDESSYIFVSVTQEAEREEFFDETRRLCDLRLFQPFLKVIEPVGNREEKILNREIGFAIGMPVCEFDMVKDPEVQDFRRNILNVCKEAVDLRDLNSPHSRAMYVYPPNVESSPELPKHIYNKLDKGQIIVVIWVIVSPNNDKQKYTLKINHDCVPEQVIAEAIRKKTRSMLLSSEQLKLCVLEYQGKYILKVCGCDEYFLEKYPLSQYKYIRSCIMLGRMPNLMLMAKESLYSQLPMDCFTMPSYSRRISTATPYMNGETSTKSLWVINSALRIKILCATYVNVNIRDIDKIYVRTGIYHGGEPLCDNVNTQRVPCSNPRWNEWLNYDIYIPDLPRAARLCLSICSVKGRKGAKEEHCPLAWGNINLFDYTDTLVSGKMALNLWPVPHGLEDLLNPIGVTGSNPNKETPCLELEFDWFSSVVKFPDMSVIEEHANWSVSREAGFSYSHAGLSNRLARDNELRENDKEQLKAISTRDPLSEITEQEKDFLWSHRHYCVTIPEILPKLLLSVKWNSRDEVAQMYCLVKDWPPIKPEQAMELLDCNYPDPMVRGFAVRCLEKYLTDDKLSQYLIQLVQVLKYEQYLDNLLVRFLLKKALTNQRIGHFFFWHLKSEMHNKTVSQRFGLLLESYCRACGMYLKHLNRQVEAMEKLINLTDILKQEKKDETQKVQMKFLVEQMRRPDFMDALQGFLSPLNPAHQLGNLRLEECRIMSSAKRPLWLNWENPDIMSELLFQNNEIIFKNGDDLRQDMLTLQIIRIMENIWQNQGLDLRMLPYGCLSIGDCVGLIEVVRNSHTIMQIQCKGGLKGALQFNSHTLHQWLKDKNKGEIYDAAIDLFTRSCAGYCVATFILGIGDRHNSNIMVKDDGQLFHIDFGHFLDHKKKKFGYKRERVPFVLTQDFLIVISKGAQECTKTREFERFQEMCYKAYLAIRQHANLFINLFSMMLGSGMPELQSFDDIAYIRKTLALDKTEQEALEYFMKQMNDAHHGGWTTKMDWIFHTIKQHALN
- ASSAY_OVERVIEW: Enzyme Assay
Note: every record was labeled by where its IC50 sits among class A = under 1 µM, class B = from 1 µM up to 3 µM, class C = 3 µM and over

Observe how each entry below is paired with its result.
Cc1ccccc1-n1c([C@@H]2CCON2c2ncnc3[nH]cnc23)nc2cccc(Cl)c2c1=O | class C
Nc1nc(N2CCC[C@H]2c2nc3cccc(C(F)(F)F)c3c(=O)n2-c2cncc(F)c2)c2nc[nH]c2n1 | class C
COc1ccc(-n2c([C@@H]3CCCN3c3ncnc(N)c3C#N)nc3cccc(Cl)c3c2=O)cn1 | class C
COC(=O)N1CC[C@H](n2c([C@@H]3CCCN3c3ncnc4[nH]cnc34)nc3cccc(Cl)c3c2=O)C1 | class C

**Query** Field: class (IC50) — entry: Cc1nc(N)nc(N2CCC[C@H]2c2nc3cccc(Cl)c3c(=O)n2N2CCOCC2)c1C#N
**Result** class A

**Query** Field: class (IC50) — entry: O=c1c2c(F)cc(F)cc2nc([C@@H]2CCCN2c2ncnc3[nH]cnc23)n1-c1ccccc1
**Result** class C

**Query** Field: class (IC50) — entry: Cc1nc(N)nc(N2CCC[C@H]2c2nc3ccc(F)c(C)c3c(=O)n2-c2ccccc2)c1C#N
**Result** class A

**Query** Field: class (IC50) — entry: CO[C@H]1C[C@@H](c2nc3cccc(C(F)(F)F)c3c(=O)n2N2CCOCC2)N(c2ncnc(N)c2C#N)C1
**Result** class C

**Query** Field: class (IC50) — entry: COC(=O)N1CC[C@@H](n2c([C@@H]3CCCN3c3ncnc4[nH]cnc34)nc3cccc(Cl)c3c2=O)C1
**Result** class C

**Query** Field: class (IC50) — entry: CN(C)n1c([C@@H]2CCCN2c2nc(N)nc3[nH]cnc23)nc2cccc(Cl)c2c1=O
**Result** class B

**Query** Field: class (IC50) — entry: Cc1nc(N)nc(N2CCC[C@H]2c2nc3cccc(C(F)(F)F)c3c(=O)n2-c2cncnc2)c1C#N
**Result** class C

**Query** Field: class (IC50) — entry: Cc1nc(N)nc(N2C[C@@H](F)C[C@H]2c2nc3cccc(C(F)(F)F)c3c(=O)n2-c2ccccc2)c1C#N
**Result** class A

**Query** Field: class (IC50) — entry: CS(=O)(=O)c1c(F)ccc2nc([C@@H]3CCCN3c3ncnc(N)c3C#N)n(-c3ccccc3)c(=O)c12
**Result** class C
